molecular target: p-EGFR L858R (BaF3-L858R cells) (Homo sapiens, UniProt P00533, L858R); construct: host or cells: BaF3; assay: Cell p-EGFR inhibition assay, HTRF, BaF3-L858R cells; assay type: cell-based; conditions: 16 h treatment, maximum percentage of pEGFR inhibition
VALUE_TYPE: Imax (%)
I only need the number, in %, no unit after it.

stdin: Sample Cc1cc2cc(n1)-c1cnn(C)c1OC[C@H]1CCC(C1)CN1/C(=N/C2=O)Nc2ccc(N3CCN([C@H]4CCN(c5ccc(C6CCC(=O)NC6=O)nc5C)C[C@@H]4F)CC3)cc21 (stereo partly shown) — what was its Imax (%)?
stdout: 94.9

stdin: For `CC[C@H]1CN(c2ccc3c(c2)N2C[C@@H]4CC[C@H](COc5c(c(C)nn5C)-c5cc(cc(C)n5)C(=O)/N=C/2N3)C4)CCN1C1CCN(c2cc(F)c([C@H]3CCC(=O)NC3=O)c(F)c2)CC1` , what is its reported Imax (%)?
stdout: 92.5

stdin: Give the measured Imax (%) of Cc1cc2cc(n1)-c1cnn(C)c1OC[C@H]1CC[C@H](C1)CN1/C(=N/C2=O)Nc2ccc(N3CCN(C4CCN(c5ccc(NC6CCC(=O)NC6=O)cc5F)CC4)CC3)cc21 (stereo partly shown) .
stdout: 102.5

stdin: I have this compound here, `COC[C@H]1CN(c2ccc3c(c2)N2CC4CC[C@H](COc5c(c(C(F)F)nn5C)-c5cc(cc(C)n5)C(=O)/N=C/2N3)C4)CCN1C1CCN(c2cc(F)c([C@H]3CCC(=O)NC3=O)c(F)c2)CC1` , and I need its recorded Imax (%).
stdout: 95

stdin: Please report the recorded Imax (%) for Cc1cc2cc(n1)-c1c(C)nn(C)c1OC[C@H]1CCC(C1)CN1/C(=N/C2=O)Nc2ccc(N3CCN(C4CCN(c5ccc(C6CCC(=O)NC6=O)nc5C)CC4)CC3)cc21 (stereo partly shown) .
stdout: 92.8

stdin: Value lookup for Imax (%); key = Cc1cc2cc(n1)-c1cnn(C)c1OC[C@H]1CCC(C1)CN1/C(=N/C2=O)Nc2ccc(N3CCN(CCc4cc(F)c(C5CCC(=O)NC5=O)nc4C)CC3)cc21 (stereo partly shown)
stdout: 92.5

stdin: Consider the compound shown here: `Cc1cc2cc(n1)-c1c(C)nn(C)c1OC[C@H]1CC[C@H](C1)CN1/C(=N/C2=O)Nc2ccc(N3CC4CCC3CN4C3CCN(c4cc(F)c([C@H]5CCC(=O)NC5=O)c(F)c4)CC3)cc21` What is its recorded Imax (%)?
stdout: 101.04

stdin: Recorded Imax (%) for `Cc1cc2cc(n1)-c1c(C)nn(C)c1OC[C@H]1CCC(C1)CN1/C(=N/C2=O)Nc2ccc(N3CCC(N(C)C4CCN(c5cc(F)c([C@H]6CCC(=O)NC6=O)c(F)c5)CC4)CC3)cc21` , please?
stdout: 104.73

stdin: Field request: Imax (%) | item: Cc1cc2cc(n1)-c1c(C)nn(C)c1OC[C@H]1CC[C@H](C1)CN1/C(=N/C2=O)Nc2ccc(N3CCN([C@H]4CCN(c5cc(F)c([C@H]6CCC(=O)NC6=O)c(F)c5)C4)CC3)cc21 (single isomer, unassigned)
stdout: 92

stdin: Recorded Imax (%) of `COC[C@@H]1CN(c2cc3c(cc2C)N/C2=N\C(=O)c4cc(C)nc(c4)-c4cnn(C)c4OC[C@H]4CC[C@H](C4)CN23)CCN1C1CCN(c2cc(F)c([C@H]3CCC(=O)NC3=O)c(F)c2)CC1` , please.
stdout: 100.3

stdin: Report Imax (%) for Cc1cc2cc(n1)-c1cnn(C)c1OC[C@H]1CC[C@H](C1)CN1/C(=N/C2=O)Nc2ccc(N3CCN(C4CCN(c5ccc(OC6CCC(=O)NC6=O)nc5C)CC4)CC3)cc21 (stereo partly shown) please.
stdout: 96.47

stdin: What does the data say about its Imax (%)? Entry: Cc1cc2cc(n1)-c1cnn(C)c1OC[C@H]1CCC(C1)CN1/C(=N/C2=O)Nc2ccc(N3CCN(C4CCN(c5cc(F)c(C6CCC(=O)NC6=O)c(F)c5)CC4)[C@@H](C)C3)cc21 (stereo partly shown)
stdout: 94.3

stdin: So what's the measured Imax (%) for this one? `Cc1cc2cc(n1)-c1c(C)nn(C)c1OC[C@H]1CC[C@H](C1)CN1/C(=N/C2=O)Nc2ccc(N3CCN(C4CCN(c5cc(F)c([C@H]6CCC(=O)NC6=O)c(F)c5)CC4)C(=O)C3)cc21`
stdout: 94.91

stdin: Param item = `COC[C@H]1CN(c2cc3c(cc2C)N/C2=N\C(=O)c4cc(C)nc(c4)-c4c(C)nn(C)c4OC[C@H]4CC[C@H](C4)CN23)CCN1C1CCN(c2cc(F)c([C@H]3CCC(=O)NC3=O)c(F)c2)CC1` ; retrieve measured Imax (%).
stdout: 100

stdin: Consider the compound shown here: COC[C@H]1CN(c2ccc3c(c2)N2CC4CC[C@H](COc5c(c(C)nn5C)-c5cc(cc(C)n5)C(=O)/N=C/2N3)C4)CCN1C1CCN(c2cc(F)c(C3CCC(=O)NC3=O)nc2C)CC1 (stereo partly shown) What is its recorded Imax (%)?
stdout: 98.4

stdin: Item under review: Cc1cc2cc(n1)-c1cnn(C)c1OC[C@H]1CCC(C1)CN1/C(=N/C2=O)Nc2ccc(N3CCN(C4CCN(c5ccc(NC6CCC(=O)NC6=O)nc5C)CC4)CC3)cc21 (stereo partly shown) . Reported Imax (%)?
stdout: 110.3

stdin: Any idea what Imax (%) was measured for `COC[C@@H]1CN(c2ccc3c(c2)N2C[C@@H]4CCC(COc5c(c(C)nn5C)-c5cc(cc(C)n5)C(=O)/N=C/2N3)C4)CCN1C1CN(C2CCN(c3cc(F)c([C@H]4CCC(=O)NC4=O)c(F)c3)CC2)C1` ?
stdout: 96.6

stdin: Reported Imax (%) for Cc1cc2cc(n1)-c1cnn(C)c1OC[C@H]1CCC(C1)CN1/C(=N/C2=O)Nc2ccc(N3CCN([C@H]4CCN(c5ccc(C6CCC(=O)NC6=O)nc5C)CC4(F)F)CC3)cc21 (stereo partly shown) : what is it?
stdout: 96.5

stdin: Which measured Imax (%) value corresponds to `Cc1cc2cc(n1)-c1cnn(C)c1OC[C@H]1CC[C@H](C1)CN1/C(=N/C2=O)Nc2ccc(N3CCN(C4CCN(c5ccc([C@H]6CCC(=O)NC6=O)nc5C)CC4)[C@H](C)C3)cc21` ?
stdout: 93.37

* * *

target: p-EGFR Del19/C797S (H1975-clone #23 cells) (Homo sapiens); test: Cell p-EGFR inhibition assay, HTRF, H1975-clone#23 (DEL19/C797S) cells; settings: 16 h treatment, pEGFR inhibition
Give pIC50 for every item shown.
// pIC50 here means minus log10 of the molar concentration (mol/L)

stdin: pIC50 lookup needed for Cc1cc2cc(n1)-c1cnn(C)c1OC[C@H]1CC[C@H](C1)CN1/C(=N/C2=O)Nc2ccc(N3CCN(CC4CN(c5ccc6c(c5)CN(C5CCC(=O)NC5=O)C6=O)C4)CC3)cc21 (some centres unmarked) [Example 35] , thanks.
stdout: 9.30

stdin: Would you mind telling me what pIC50 value was observed for Cc1cc2cc(n1)-c1cnn(C)c1OC[C@H]1CCC(C1)CN1/C(=N/C2=O)Nc2ccc(N3CC4(CCN(C5CN(c6cc(F)c([C@H]7CCC(=O)NC7=O)c(F)c6)C5)CC4)C3)cc21 [Example 126] ?
stdout: 8.84

stdin: // lookup pIC50 for COC[C@@H]1CN(c2ccc3c(c2)N2CC4CC[C@H](COc5c(c(C)nn5C)-c5cc(cc(C)n5)C(=O)/N=C/2N3)C4)CCN1C1CCN(c2cc(F)c([C@H]3CCC(=O)NC3=O)c(F)c2)CC1 [Example 80]
stdout: 8.80

stdin: Endpoint output: pIC50 of COC[C@@H]1CN(c2cc3c(cc2OC)N/C2=N\C(=O)c4cc(C)nc(c4)-c4c(C)nn(C)c4OC[C@H]4CC[C@H](C4)CN23)CCN1C1CCN(c2cc(F)c([C@H]3CCC(=O)NC3=O)c(F)c2)CC1 [Example 151] . Value?
stdout: 8.99

stdin: Which pIC50 value is on record for Cc1cc2cc(n1)-c1cnn(C)c1OC[C@H]1CCC(C1)CN1/C(=N/C2=O)Nc2ccc(N3CCN(C4CCN(c5cc(F)c(C6CCC(=O)NC6=O)c(F)c5)CC4)[C@@H](C)C3)cc21 (some centres unmarked) [Example 119] ?
stdout: 9.22

* * *

target: EGFR L858R (BaF3-L858R cells) (Homo sapiens, UniProt P00533, L858R); construct: host or cells: BaF3; assay: Cell degradation of EGFR, HTRF assay, BaF3-L858R cells; assay type: cell-based; conditions: 16 h treatment, maximum percentage of degradation
Record form. Attribute: Dmax. Fill in for each entry.
A number alone suffices; assume %.

stdin: Which Dmax is listed for Cc1cc2cc(n1)-c1cnn(C)c1OC[C@H]1CC[C@H](C1)CN1/C(=N/C2=O)Nc2ccc(N3CCN(C4CCN(c5ccc(OC6CCC(=O)NC6=O)nc5C)CC4)CC3)cc21 (some centres unmarked) [Example 137] ?
stdout: 83.3

stdin: Please give the measured Dmax for this compound: Cc1cc2cc(n1)-c1cnn(C)c1OC[C@H]1CCC(C1)CN1/C(=N/C2=O)Nc2ccc(N3CCC(CN4CCC(Nc5cc(F)c([C@H]6CCC(=O)NC6=O)c(F)c5)CC4)CC3)cc21 [Example 131]
stdout: 69.1

stdin: Value lookup for Dmax; key = CCc1nc(C2CCC(=O)NC2=O)ccc1N1CCC(N2CCN(c3ccc4c(c3)N3C[C@@H]5CC[C@H](COc6c(cnn6C)-c6cc(cc(C)n6)C(=O)/N=C/3N4)C5)CC2)CC1 (some centres unmarked) [Example 4]
stdout: 87.6

stdin: Reported Dmax for COC[C@@H]1CN(c2ccc3c(c2)N2CC4CC[C@H](COc5c(cnn5C)-c5cc(cc(C)n5)C(=O)/N=C/2N3)C4)CCN1C1CCN(c2c(F)cc(NC3CCC(=O)NC3=O)cc2F)CC1 (some centres unmarked) [Example 93] : what is it?
stdout: 77.4

stdin: Dmax lookup needed for Cc1cc2cc(n1)-c1cnn(C)c1OC[C@H]1CC[C@H](C1)CN1/C(=N/C2=O)Nc2ccc(N3CCN([C@H]4CCN(c5cc(F)c(C6CCC(=O)NC6=O)nc5C)C[C@H]4F)CC3)cc21 (some centres unmarked) [Example 27] , thanks.
stdout: 91.1
